Target: T1, recombinant human CLL-1 extracellular domain (ECD, amino acids 65-265) fused to an N-terminal Flag (human, UniProt Q5QGZ9 65-265)
T1 construct: The construct and the K244Q SNP are stated for the immunogen; they are not written as a piece; also called huCLL-1-Flag; huCLL-1
T1 chain: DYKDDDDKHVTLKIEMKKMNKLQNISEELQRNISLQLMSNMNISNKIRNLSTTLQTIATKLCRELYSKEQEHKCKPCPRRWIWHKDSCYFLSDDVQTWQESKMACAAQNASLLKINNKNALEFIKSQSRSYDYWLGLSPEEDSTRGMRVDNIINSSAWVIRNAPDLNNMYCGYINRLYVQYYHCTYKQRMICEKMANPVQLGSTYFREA
Test: SPR (Biacore T200), IgG captured by anti-human Fc, CLL-1 as analyte
Examples of binders with documented koff follow.
The figure you give is taken to be in s⁻¹; do not add the unit.

Reference set (2 entries):
{"columns": ["Binder", "Unit Symbol", "koff"],
 "data": [
  ["6E7.L4H1eE54 (antibody, V domains shown, IgG) VH: EVQLVQSGAEVKKPGASVKVSCKASGYSFTDYYMHWVRQAPGQGLEWIGRINPYEGAAFYSQNFKDRVTLTVDTSTSTAYLELSSLRSEDTAVYYCAIERGADLEGYAMDYWGQGTLVTVSS VL: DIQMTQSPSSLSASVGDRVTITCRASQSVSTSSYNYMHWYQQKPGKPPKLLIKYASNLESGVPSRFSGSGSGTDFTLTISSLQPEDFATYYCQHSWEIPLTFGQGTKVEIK", "s⁻¹", 0.00248],
  ["21C9.L2H3A54 (antibody, V domains shown) VH: EVQLVQSGAEVKKPGASVKVSCKASGYTFTDYYLDWVRQAPGQGLEWIGRVNPYAGGTIYNQKFKGRVTLTRDTSTSTAYLELSSLRSEDTAVYYCARDHYRYDPLLDYWGQGTLVTVSS VL: DIQMTQSPSSLSASVGDRVTITCKASQDVSTAVAWFQQKPGKAPKLLIYSPSYRYTGVPSRFSGSGSGTDFTLTISSLQPEDFATYYCQQLYSTPYTFGQGTKVEIK", "s⁻¹", 0.0692]
]}

// moving on: another record for koff
Tell me the measured koff of 21C9.L2H3S54 (antibody, V domains shown) VH: EVQLVQSGAEVKKPGASVKVSCKASGYTFTDYYLDWVRQAPGQGLEWIGRVNPYSGGTIYNQKFKGRVTLTRDTSTSTAYLELSSLRSEDTAVYYCARDHYRYDPLLDYWGQGTLVTVSS VL: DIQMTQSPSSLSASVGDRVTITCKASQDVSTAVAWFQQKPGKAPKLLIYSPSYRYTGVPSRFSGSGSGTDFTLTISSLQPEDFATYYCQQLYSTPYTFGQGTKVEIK , please.
0.0405

Data origin: patent US20200148774A1
